TESTED SYSTEM: T1, 4H2907-AA
T1 chain: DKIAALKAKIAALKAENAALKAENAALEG
ASSAY COMMENT: two-hybrid library CCmax;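 further: natural log of median RNA to DNA barcode read ratio; higher means stronger binding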
CONDITION SET: mean of both orientations
Items are presented alongside their recorded interaction score.
I only need the number, thanks.

Example results:
[
  {
    "BINDER": "DENAALEAEIAALKAKNAALEAKIAALKG [4H1142-AA]",
    "QUANTITATIVE READOUT": -1.24
  },
  {
    "BINDER": "DENAALEAKIAALKAKIAALKAENAALKG [4H1388-AA]",
    "QUANTITATIVE READOUT": -0.775
  }
]

Kindly consider the entry below.
Input line: Give the measured interaction score of DENAALEAKIAALEAENAALKAKIAALKG [4H1310-AA] .
Output line: 1.34
